- System: Staphylococcus aureus
- assay comment: Antibacterial activity against inducible macrolide-lincosamide-streptogramin B-resistant Staphylococcus aureus B0538 by agar microdilution method
- Type: functional
Classify: Y when MIC is strictly less than 1 µg/mL; N when MIC is not.

| molecule | label |
| --- | --- |
| CC[C@H]1OC(=O)[C@H](C)C(=O)[C@H](C)[C@@H](O[C@H]2C[C@H](O)[C@@H](N(C)C)[C@@H](C)O2)[C@](C)(OC/C=C/c2cnc3ccccc3c2)C[C@@H](C)/C(=N\OC(C)=O)[C@H](C)[C@@H](O)[C@]1(C)O | Y |
| CC[C@H]1OC(=O)[C@H](C)C(=O)[C@H](C)[C@@H](O[C@@H]2O[C@H](C)C[C@H](N(C)C)[C@H]2O)[C@](C)(OCC(O)CN2CCN(c3ccc4c(c3)c(=O)c(C(=O)O)cn4C3CC3)CC2)C[C@@H](C)NC(=O)[C@H](C)[C@H](O)[C@@]1(C)O (stereo partly drawn) | Y |
| CC[C@H]1OC(=O)[C@H](C)C(=O)[C@H](C)[C@@H](O[C@@H]2O[C@H](C)C[C@H](N(C)C)[C@H]2O)[C@](C)(OC)C[C@@H](C)C(=O)[C@H](C)[C@H]2N(CCCCn3cnc(-c4cccnc4)c3)C(=O)O[C@]12C | Y |
| CC[C@H]1OC(=O)[C@H](C)C(=O)[C@H](C)[C@@H](O[C@H]2C[C@H](O)[C@@H](N(C)C)[C@@H](C)O2)[C@](C)(OC/C=C/c2cnc3ccccc3c2)C[C@@H](C)/C(=N\O)[C@H](C)[C@@H](O)[C@]1(C)O | Y |
| CC[C@H]1OC(=O)[C@H](C)C(=O)[C@H](C)[C@@H](O[C@@H]2O[C@H](C)C[C@H](N(C)C)[C@H]2O)[C@](C)(OC/C=C/c2cnc3ccccc3c2)C[C@@H](C)NC(=O)[C@H](C)[C@H](O)[C@@]1(C)O | Y |
| CC[C@H]1OC(=O)[C@H](C)C(=O)[C@H](C)[C@@H](O[C@@H]2O[C@H](C)C[C@H](N(C)C)[C@H]2O)[C@](C)(OCC(O)CNC2CN(S(=O)(=O)c3ccc4ccncc4c3)CCN2)C[C@@H](C)NC(=O)[C@H](C)[C@H](O)[C@@]1(C)O (stereo partly drawn) | N |
| CC[C@H]1OC(=O)[C@H](C)C(=O)[C@H](C)[C@@H](O[C@@H]2O[C@H](C)C[C@H](N(C)C)[C@H]2O)[C@](C)(OC/C=C/c2cccc3ccccc23)C[C@@H](C)NC(=O)[C@H](C)[C@H](O)[C@@]1(C)O | N |
| CC[C@H]1OC(=O)[C@H](C)C(=O)[C@H](C)[C@@H](O[C@@H]2O[C@H](C)C[C@H](N(C)C)[C@H]2O)[C@](C)(OC[C@@H](O)CN2CCN(c3ccc4c(c3F)c(=O)c(C(=O)O)cn4C3CC3)CC2)C[C@@H](C)NC(=O)[C@H](C)[C@H](O)[C@@]1(C)O | Y |
| CC[C@H]1OC(=O)[C@H](C)C(=O)[C@H](C)[C@@H](O[C@@H]2O[C@H](C)C[C@H](N(C)C)[C@H]2O)[C@](C)(OCC(O)CNCCc2cccnc2)C[C@@H](C)NC(=O)[C@H](C)[C@H](O)[C@@]1(C)O (stereo partly drawn) | N |
| CC[C@H]1OC(=O)[C@H](C)C(=O)[C@H](C)[C@@H](O[C@@H]2O[C@H](C)C[C@H](N(C)C)[C@H]2O)[C@](C)(OC[C@H](O)CN2CCN(c3ccc4c(c3F)c(=O)c(C(=O)O)cn4C3CC3)CC2)C[C@@H](C)NC(=O)[C@H](C)[C@H](O)[C@@]1(C)O | Y |
| CC[C@H]1OC(=O)[C@H](C)C(=O)[C@H](C)[C@@H](O[C@@H]2O[C@H](C)C[C@H](N(C)C)[C@H]2O)[C@](C)(OCC(O)CN[C@H](C)Cc2ccccc2)C[C@@H](C)NC(=O)[C@H](C)[C@H](O)[C@@]1(C)O (stereo partly drawn) | N |
| CC[C@H]1OC(=O)[C@H](C)C(=O)[C@H](C)[C@@H](O[C@@H]2O[C@H](C)C[C@H](N(C)C)[C@H]2O)[C@](C)(OCC(O)CN2CCN(c3ccc4c(c3F)c(=O)c(C(=O)OC)cn4C3CC3)CC2)C[C@@H](C)NC(=O)[C@H](C)[C@H](O)[C@@]1(C)O (stereo partly drawn) | N |
